Recorded values, source the RNAGym collection of RNA variant scans (doi:10.7554/elife.80360).

B1: HDV Ribozyme (parent)
chain: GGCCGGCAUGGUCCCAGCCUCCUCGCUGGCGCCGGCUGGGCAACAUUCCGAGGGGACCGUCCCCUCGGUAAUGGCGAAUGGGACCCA

Variants of: B1
Assay Remarks: self-cleavage, relative activity (ratio to wild type); higher = more cleavage; co-transcriptional
Please note: 1 applies when self-cleavage is 0.7 or greater, and -1 applies otherwise.

# bool: self-cleavage of "GGCCGGCAUGGUCCCAGCCUCCUCGCUGGCGCCGGCUGGGCCACAUUCCGAGCGGACCGUCCCCUCGGUAAUGGCGAAUGGGACCCA" >= 0.7
-1

# bool: self-cleavage of "GGCCGGCAUGGUGCCAGCCUCCUCGCUGGCGCCGGCCGGGCAACAUUCCGAGGGGACCGUCCCCUCGGUAAUGGCGAAUGGGACCCA" >= 0.7
-1

# bool: self-cleavage of "GGCCGGCAUGGUCCCAUCCUCCUCGCUGGCGCCGGCUGGGCAACAUUCCGAGGGGACCGUCCCCUCGGUAAUGGAGAAUGGGACCCA" >= 0.7
-1

# bool: self-cleavage of "GGCCGGCAUGGUCCCAGCCUCCUCGCUGGCGCCGGCUGGGCAACAUUCCGAGGGGACCGUUCCCUCGGUACUGGCGAAUGGGACCCA" >= 0.7
1

# bool: self-cleavage of "GGCCGGCAUGGACCCAGCCUCCUCGCUGGUGCCGGCUGGGCAACAUUCCGAGGGGACCGUCCCCUCGGUAAUGGCGAAUGGGACCCA" >= 0.7
-1

# bool: self-cleavage of "GGCCGGCAUGGUCCCAUCCUCCUCGCUCGCGCCGGCUGGGCAACAUUCCGAGGGGACCGUCCCCUCGGUAAUGGCGAAUGGGACCCA" >= 0.7
-1

# bool: self-cleavage of "GGCCGGCAUGGUCCCAGCCUCCUCGCUGGCGCCGGCUGGGCAACAUGCCGAGGGGACCGUCCCCUCGGUAAUGGCGAAUGGGACGCA" >= 0.7
1

# bool: self-cleavage of "GGCCGGCAUGGUCCCAGCCUCCUCGCUGGCGCCGUCUGGGCAACAUUCCGAGGGGACCGUCCCCUCGGUAAUGGCGAAAGGGACCCA" >= 0.7
-1

# bool: self-cleavage of "GGCCGGCAUGGUCCCAGCCUCCUCGAUGGCGCCGGCUGGGCACCAUUCCGAGGGGACCGUCCCCUCGGUAAUGGCGAAUGGGACCCA" >= 0.7
-1

# bool: self-cleavage of "GGCCGGCAUGGUCCCAGCCUCCUCGCUGGCGCCGGCUGGGUAACAUUCCGAGGGGACCGUCCCCUCGAUAAUGGCGAAUGGGACCCA" >= 0.7
1

# bool: self-cleavage of "GGCCGGCAAGGUCCCAGCCUCCUCGCUGGCGCCGGCUGGGCAACAUUCCGAGGGGACCGUCCCCUCGGUAAUGGCGAAUGGGACACA" >= 0.7
1
